molecular target: c-Src SH2; assay: SH2 binding enrichment of the phosphorylated peptide, bacterial display (enrichment ratio); higher = better substrate or ligand; peptides without Tyr show the background;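 also: peptide library displayed on the E. coli surface as eCPX fusions, selected cells deep-sequenced, score is each peptide's frequency after selection divided by its frequency in the input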
Measured SH2 binding enrichment, listed per entry.
Write the number on its own, no unit after it.

{"primarySequence": "YTHSDYQYSQR [PKP2_Y166]", "recordedResult": 0.595}
{"primarySequence": "IRKTEYPFSSE [ATP2C1_Y452_A450T]", "recordedResult": 0.587}
{"primarySequence": "QEALEYFMKQV [PIK3CA_Y1038_M1043V]", "recordedResult": 0.472}
{"primarySequence": "PQEVMYAQLDH [KIR3DL2_Y398_T397M]", "recordedResult": 1.21}
{"primarySequence": "TFAVSYLPDMS [FLNC_Y1602_T1599A_YF]", "recordedResult": 0.566}

Inquiry: Fill in the blank: the reported SH2 binding enrichment of MKGDYYCYLAE [YWHAG_Y131_R132C] is ____.
Reply text: 1.36

Inquiry: Fill in the blank: the reported SH2 binding enrichment of SENAFYLSPHI [COL6A3_Y2827_D2831H] is ____.
Reply text: 0.461

Inquiry: Fill in the blank: the reported SH2 binding enrichment of QRTMKYTTATG [MCCC1_Y41] is ____.
Reply text: 0.473

Inquiry: Fill in the blank: the reported SH2 binding enrichment of PSAVAYPKRSQ [MARK3_Y432_V429A] is ____.
Reply text: 0.473

All figures here come from the supplement of paper PMC10065799.
